- EXPERIMENTAL_TARGET: CP-1 (cyclic peptide 1)
- METHOD_SUMMARY: BLI
TEST_READOUT: Kd (µM)
Numbers only; they are read as µM.

Tell me the measured Kd of DVIEVYQEQTGG [DG12, terminal dodecapeptide sequence of SUMO1] , please.
5.86
